The binders listed here are annotated with their cell scattering score, HPAF-II, 0.111 nM.
Target: native human MET on living human cells (human, UniProt P08581 25-1390)
Sequence (P08581 25-1390): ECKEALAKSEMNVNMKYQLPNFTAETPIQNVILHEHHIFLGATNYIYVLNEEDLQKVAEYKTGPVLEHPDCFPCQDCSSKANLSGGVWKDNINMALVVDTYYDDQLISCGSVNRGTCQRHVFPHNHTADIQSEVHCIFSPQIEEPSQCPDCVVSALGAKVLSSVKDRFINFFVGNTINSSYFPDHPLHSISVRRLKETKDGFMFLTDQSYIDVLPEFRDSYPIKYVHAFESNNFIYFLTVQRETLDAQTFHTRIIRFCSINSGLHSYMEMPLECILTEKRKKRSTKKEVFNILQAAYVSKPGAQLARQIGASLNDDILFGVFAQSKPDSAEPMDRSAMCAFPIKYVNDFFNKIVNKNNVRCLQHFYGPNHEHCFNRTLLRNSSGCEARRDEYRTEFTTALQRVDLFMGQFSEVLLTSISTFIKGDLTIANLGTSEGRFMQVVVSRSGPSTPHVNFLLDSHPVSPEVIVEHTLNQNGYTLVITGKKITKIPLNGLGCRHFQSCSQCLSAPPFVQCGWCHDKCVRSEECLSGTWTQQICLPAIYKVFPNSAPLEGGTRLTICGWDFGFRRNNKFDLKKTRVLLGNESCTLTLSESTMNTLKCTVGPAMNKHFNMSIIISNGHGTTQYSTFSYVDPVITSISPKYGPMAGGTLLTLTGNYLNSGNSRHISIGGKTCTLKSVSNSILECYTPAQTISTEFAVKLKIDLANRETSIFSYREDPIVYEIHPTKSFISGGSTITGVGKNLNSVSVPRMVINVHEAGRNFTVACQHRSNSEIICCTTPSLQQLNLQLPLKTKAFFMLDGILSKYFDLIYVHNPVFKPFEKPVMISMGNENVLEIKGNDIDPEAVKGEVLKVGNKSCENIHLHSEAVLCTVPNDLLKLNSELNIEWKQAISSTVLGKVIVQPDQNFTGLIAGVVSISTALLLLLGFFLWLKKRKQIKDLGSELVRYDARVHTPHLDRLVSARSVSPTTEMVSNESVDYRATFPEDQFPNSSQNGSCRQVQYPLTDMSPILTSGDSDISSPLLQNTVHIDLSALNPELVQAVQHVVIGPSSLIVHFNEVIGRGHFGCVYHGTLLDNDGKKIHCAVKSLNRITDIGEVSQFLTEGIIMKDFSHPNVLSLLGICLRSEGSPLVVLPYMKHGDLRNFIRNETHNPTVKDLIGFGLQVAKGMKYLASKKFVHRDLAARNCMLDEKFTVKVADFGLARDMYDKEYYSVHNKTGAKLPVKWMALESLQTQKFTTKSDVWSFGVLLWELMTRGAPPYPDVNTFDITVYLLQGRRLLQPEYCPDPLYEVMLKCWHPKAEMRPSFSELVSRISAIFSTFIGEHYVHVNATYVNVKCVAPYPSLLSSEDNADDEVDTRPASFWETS
Experiment: cell-based or functional assay
Reply numerically in score 0-4, unit not repeated.

{"columns": ["binder", "cell scattering score, HPAF-II, 0.111 nM [score 0-4]"],
 "data": [
  ["chimeric llama-human IgG1 mAb 74C8 (antibody, V domains shown) VH: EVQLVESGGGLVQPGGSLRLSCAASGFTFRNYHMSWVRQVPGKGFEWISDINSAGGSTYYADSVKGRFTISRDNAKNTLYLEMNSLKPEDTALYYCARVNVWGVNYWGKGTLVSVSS VL: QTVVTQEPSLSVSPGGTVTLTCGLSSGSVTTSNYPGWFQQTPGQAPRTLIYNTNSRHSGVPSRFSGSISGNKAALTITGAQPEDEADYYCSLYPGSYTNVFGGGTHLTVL", 2],
  ["chimeric llama-human IgG1 mAb 71A3 (antibody, V domains shown) VH: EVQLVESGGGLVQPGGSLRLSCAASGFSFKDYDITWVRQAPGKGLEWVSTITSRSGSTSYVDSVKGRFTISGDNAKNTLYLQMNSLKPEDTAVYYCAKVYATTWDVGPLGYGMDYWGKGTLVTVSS VL: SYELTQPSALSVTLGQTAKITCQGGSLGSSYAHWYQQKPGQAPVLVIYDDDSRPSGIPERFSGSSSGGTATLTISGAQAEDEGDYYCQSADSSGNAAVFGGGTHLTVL", 3],
  ["chimeric llama-human IgG1 mAb 72F8 (antibody, V domains shown) VH: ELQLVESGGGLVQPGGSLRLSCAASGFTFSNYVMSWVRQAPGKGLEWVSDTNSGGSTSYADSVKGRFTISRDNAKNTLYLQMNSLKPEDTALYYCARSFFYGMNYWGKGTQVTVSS VL: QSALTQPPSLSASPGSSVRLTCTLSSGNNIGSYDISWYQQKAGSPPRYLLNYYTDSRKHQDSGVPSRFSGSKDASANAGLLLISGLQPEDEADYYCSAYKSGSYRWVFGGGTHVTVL", 0]
]}

Task item: Given chimeric llama-human IgG1 mAb 76H10 (antibody, V domains shown) VH: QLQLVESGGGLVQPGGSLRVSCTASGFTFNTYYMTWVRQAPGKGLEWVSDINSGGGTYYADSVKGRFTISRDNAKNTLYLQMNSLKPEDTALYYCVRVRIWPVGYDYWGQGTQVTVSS VL: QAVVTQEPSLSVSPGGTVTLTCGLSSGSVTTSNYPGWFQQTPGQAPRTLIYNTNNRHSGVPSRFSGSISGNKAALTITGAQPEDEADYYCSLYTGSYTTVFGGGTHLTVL , state its recorded cell scattering score, HPAF-II, 0.111 nM.
Reply: 0

Task item: Fill blank: measured cell scattering score, HPAF-II, 0.111 nM of the binder chimeric llama-human IgG1 mAb 71D4 (antibody, V domains shown) VH: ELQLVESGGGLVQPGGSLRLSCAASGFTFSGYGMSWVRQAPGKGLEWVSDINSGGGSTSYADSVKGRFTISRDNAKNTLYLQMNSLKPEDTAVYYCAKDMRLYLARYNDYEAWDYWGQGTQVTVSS VL: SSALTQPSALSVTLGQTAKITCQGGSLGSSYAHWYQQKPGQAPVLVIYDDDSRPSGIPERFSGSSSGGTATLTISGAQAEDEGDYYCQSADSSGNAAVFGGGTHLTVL is ____.
Reply: 0

Reference source for all entries: patent US20210024639A1
